Procedure summary: Cytotoxicity against bovine chondrocytes at 0.1 mM after 96 hrs by MTT cell viability assay
Assay type: cell-based, Bos taurus
Condition label: cattle, 100 µM
Metric name: Activity (%)
A number alone suffices; assume %.

// worked examples, Activity included
>>> print(df.to_string())
                                   molecule  endpoint_unit  recorded_number
0  CCOC(=O)[C@@H](NP(=O)(OC[C@H]1OC(O)[C@H](NC(C)=O)[C@@H](O)[C@@H]1O)Oc1ccc(OC)cc1)C(C)C (stereo partly drawn)              %               94
1  CC[C@H](C)[C@H](NP(=O)(OC[C@H]1OC(O)[C@H](NC(C)=O)[C@@H](O)[C@@H]1O)Oc1ccc(OC)cc1)C(=O)OCc1ccccc1 (stereo partly drawn)              %              110
2  COc1ccc(OP(=O)(N[C@@H](CCSC)C(=O)OCc2ccccc2)OC[C@H]2OC(O)[C@H](NC(C)=O)[C@@H](O)[C@@H]2O)cc1 (stereo partly drawn)              %              103

Retrieve Activity measured for COc1ccc(OP(=O)(N[C@H](C(=O)OC2CCCCC2)C(C)C)OC[C@H]2OC(O)[C@H](NC(C)=O)[C@@H](O)[C@@H]2O)cc1 (stereo partly drawn) and print it. 92

Given the molecule COc1ccc(OP(=O)(NC(C)(C)C(=O)OCc2ccccc2)OC[C@H]2OC(O)[C@H](NC(C)=O)[C@@H](O)[C@@H]2O)cc1 (stereo partly drawn) , write its reported Activity. 99

Given COC(=O)[C@H](C)NP(=O)(OC[C@H]1OC(O)[C@H](NC(C)=O)[C@@H](O)[C@@H]1O)Oc1ccc(OC)cc1 (stereo partly drawn) , respond with its Activity. 97

Source of measurements: ChEMBL document CHEMBL1140054
